# Test system: SK-MEL-2
# assay_notes: Cytotoxicity test to cancer cell lines (SRB method), SK-MEL-2
# Format: cell-based
# conditions_used: Homo sapiens, SK-MEL-2, 48 h, read-out: Cytotoxicity ED50 SK-MEL-2
reported_endpoint: log10 of EC50 (log10 of the value in nM)

substance_smiles=COc1cc2c(c(OC)c1OC)-c1ccc(SC)c(=O)cc1[C@@H](NC(=O)c1ccc(CO[N+](=O)[O-])s1)CC2 numeric_readout=-1.10
substance_smiles=COc1cc2c(c(OC)c1OC)-c1ccc(SC)c(=O)cc1[C@@H](NC(=O)c1cccc(OC(=O)CCCO[N+](=O)[O-])c1)CC2 numeric_readout=-1.30
substance_smiles=COc1c(OC(C)C)cc2c(c1OC)-c1ccc(SC)c(=O)cc1[C@@H](NC(=O)c1cccc(CO[N+](=O)[O-])c1F)CC2 numeric_readout=-0.66
substance_smiles=COc1cc2c(c(OC)c1OC)-c1ccc(SC)c(=O)cc1[C@@H](NC(=O)c1cccc(CO[N+](=O)[O-])c1F)CC2 numeric_readout=-0.92
substance_smiles=COc1cc2c(c(OC)c1OC)-c1ccc(SC)c(=O)cc1[C@@H](NC(=O)c1cc(F)cc(CON=O)c1)CC2 numeric_readout=0.97
substance_smiles=COc1cc2c(c(OC)c1OC)-c1ccc(SC)c(=O)cc1[C@@H](NC(=O)c1cc(F)cc(CO[N+](=O)[O-])c1)CC2 numeric_readout=-0.96
substance_smiles=COc1cc2c(c(OC)c1OC)-c1ccc(SC)c(=O)cc1[C@@H](NC(=O)c1cccc(COC(=O)c3cccc(CO[N+](=O)[O-])c3)n1)CC2 numeric_readout=0.85
substance_smiles=COc1cc2c(c(OC)c1OC)-c1ccc(SC)c(=O)cc1[C@@H](NC(=O)c1ccc(F)c(CO[N+](=O)[O-])c1)CC2 numeric_readout=0.00
substance_smiles=COc1cc2c(c(OC)c1OC)-c1ccc(SC)c(=O)cc1[C@@H](NC(=O)c1cccc(COC(=O)c3cccc(CO[N+](=O)[O-])c3)c1)CC2 numeric_readout=0.46
substance_smiles=COc1cc2c(c(OC)c1OC)-c1ccc(SC)c(=O)cc1[C@@H](NC(=O)c1cc(CO[N+](=O)[O-])cs1)CC2 numeric_readout=-0.54

###

# Tested on: MCF7
# assay_notes: Cytotoxicity test to cancer cell lines (SRB method), MCF7
# conditions_used: read-out: Cytotoxicity ED50 MCF-7, MCF-7, 48 hours
# key: entry, value: EC50
reported_endpoint: EC50

molecule=COc1cc2c(c(OC)c1OC)-c1ccc(SC)c(=O)cc1[C@@H](NC(=O)c1ccc(CO[N+](=O)[O-])o1)CC2 result="2.9 nM"
molecule="COc1cccc2c1C(=O)c1c(O)c3c(c(O)c1C2=O)C[C@@](O)(C(=O)CO)C[C@@H]3O[C@H]1C[C@H](N)[C@H](O)[C@H](C)O1 [Doxorubicin, reference compound]" result="50 nM"
molecule=COc1cc2c(c(OC)c1OC)-c1ccc(SC)c(=O)cc1[C@@H](NC(=O)c1sccc1CO[N+](=O)[O-])CC2 result="0.21 nM"
molecule=COc1cc2c(c(OC)c1OC)-c1ccc(SC)c(=O)cc1[C@@H](NC(=O)c1cc(F)cc(CON=O)c1)CC2 result="10.3 nM"
molecule=COc1cc2c(c(OC)c1OC)-c1ccc(SC)c(=O)cc1[C@@H](NC(=O)c1cccc(CO[N+](=O)[O-])c1F)CC2 result="0.09 nM"
molecule=COc1cc2c(c(OC)c1OC)-c1ccc(SC)c(=O)cc1[C@@H](NC(=O)c1ccc(CO[N+](=O)[O-])s1)CC2 result="0.16 nM"

###

# assay_notes: in vivo
# conditions_used: both, ICR, mouse, in vivo
reported_endpoint: LD50 (mg/kg)

substance_smiles=COc1cc2c(c(OC)c1OC)-c1ccc(SC)c(=O)cc1[C@@H](NC(=O)c1cc(F)cc(CO[N+](=O)[O-])c1)CC2 reported_endpoint=LD50 units_label=mg/kg numeric_readout=60

###

# Test system: SK-MEL-2
# assay_notes: Cytotoxicity test to cancer cell lines (SRB method), SK-MEL-2
# Assay type: cell-based
# conditions_used: Homo sapiens, SK-MEL-2, 48 h, read-out: Cytotoxicity ED50 SK-MEL-2
pEC50: −log10 of the molar value.
Overview of recorded pEC50 for various compounds
reported_endpoint: pEC50

compound="COc1c(OC2CCCC2)cc2c(c1OC)-c1ccc(SC)c(=O)cc1[C@@H](NC(=O)c1cccc(CO[N+](=O)[O-])c1)CC2 [Example 7]" measured_target=SK-MEL-2 reported_endpoint=pEC50 result="< 7.30"
compound="COc1cc2c(c(OC)c1OC)-c1ccc(SC)c(=O)cc1[C@@H](NC(=O)c1cc(F)cc(CSN=O)c1)CC2 [Example 39]" measured_target=SK-MEL-2 reported_endpoint=pEC50 result="< 7.30"
compound="COc1c(OC2CCCC2)cc2c(c1OC)-c1ccc(SC)c(=O)cc1[C@@H](NC(=O)c1cccc(CO[N+](=O)[O-])c1F)CC2 [Example 11]" measured_target=SK-MEL-2 reported_endpoint=pEC50 result="< 7.30"
